This collection of values is drawn from PubChem BioAssay (NCI).

Tested on: HOP-62 NSCLC
PROTOCOL TEXT: NCI-60 one-dose screen, 48 h
CONDITION SET: 10 µM unless noted
Compounds without any hit were thinned out: in the full panel of roughly 83,000, 20% have a hit. Activity calls are given as the source filed them. The calls were made as follows: active = growth percent below 10; inactive = the rest.
Allowed answers: label 1 for active, label 0 for inactive

Previously resolved entries follow.
COMPOUND	CLASSIFICATION
CNC(=O)c1cc(Oc2ccc(NC(=O)c3[nH]c(SC)nc3-c3ccc(F)cc3)cc2)ccn1	label 0
CCn1c(CN2CCN(Cc3ccccc3)CC2)nc2cc(NC(=O)c3cccs3)ccc21	label 1
CCNS(=O)(=O)c1ccc(C)cc1	label 0
Cc1c(O)c(=O)n(-c2ccccc2)n1C	label 0
O=C(Nc1ccccc1Cl)Oc1ccc2ccccc2c1	label 0
O=C(c1ccc(C(F)(F)F)c(Cl)c1)N(Cc1ccc(Cl)cc1)c1ccc(-c2cc(C(F)(F)F)[nH]n2)c(O)c1	label 1

Query: Outcome? Cc1ccccc1N1C(c2ccccc2)=NNC12C=CC(=O)c1c(O)cccc12 (centres undefined)
Reply: label 0

Query: Outcome? COC(=O)C(C)NC1=C(Cl)C(=O)C(NC(C)C(=O)OC)=C(Cl)C1=O (centres undefined)
Reply: label 0

Query: Outcome? "C=CCn1c(C)nc2cc(Nc3nc(Nc4ccc5nc(C)n(CC=C)c5c4)nc4ccccc34)ccc21"
Reply: label 0

###

System: T-47D breast
PROTOCOL TEXT: NCI-60 one-dose screen, 48 h
CONDITION SET: 10 µM unless noted
Method: Growth inhibition of the T-47D human tumor cell line is measured as a screen for anti-cancer activity. Cells are grown in 96 well plates and exposed to the test compound for 48 hours. Compounds are tested at a single concentration, which is 10^-5 M for most compounds. The reported endpoint is percent growth (GI% or GIPRCNT), where numbers from 0 - 100% represent growth inhibition, and numbers from -100% - 0 represent cell death. For example, a value of 40 represents 60% growth inhibition. […]
This is part of a sample that, as a whole, favours compounds with a hit. Of some 83,000 tested, about 20% had one in any assay. Calls of active or inactive are those of the source. The calls were made as follows: active = growth percent below 10; inactive = the rest.
Allowed answers: active, inactive

Query: Outcome? "COc1cc(-c2csc(NC(=O)Nc3cccc(C(F)(F)F)c3)n2)cc(OC)c1OC"
Reply: active

Query: Outcome? CO[C@@]12[C@@H]3NC3CN1C1=C(C(=O)C(N)=C(C)C1=O)[C@@H]2COC(N)=O (stereo partly drawn)
Reply: inactive

Query: Outcome? "c1ccc(C(CC2=NCCCN2)c2ccccc2)cc1"
Reply: inactive

Query: Outcome? "Cc1n(Cc2ccc3ccccc3n2)cc[n+]1Cc1ccc2ccccc2n1"
Reply: inactive

Query: Outcome? "CC(=O)Nc1ccc(Cl)cc1Cl"
Reply: inactive

Query: Outcome? "CN1CCN(c2ccc(N3Cc4ccccc4OC4=C3C(=O)c3c(O)ccc(O)c3C4=O)cn2)CC1"
Reply: active

Query: Outcome? O=C(Nc1ccccc1)C(CCCCN1C(=O)c2ccccc2C1=O)N1C(=O)c2ccccc2C1=O (stereo not drawn)
Reply: inactive

Query: Outcome? "CCN(CC)C(Cl)=Nc1ccc(Cl)cc1"
Reply: inactive

Query: Outcome? "C=CCOc1c(Br)cc(Br)cc1Br"
Reply: inactive

Query: Outcome? "Cc1cc(C)c2c(n1)sc1c(Nc3ccc(O)cc3)ncnc12"
Reply: inactive

Query: Outcome? "CCOC(=O)c1ccc(NCCC(=O)O)cc1"
Reply: inactive

Query: Outcome? "CC(C)c1[nH]ncc1-c1nc2ccc3[nH]ncc3c2c2c1CCCC2"
Reply: inactive

Query: Outcome? "COc1c(B(O)O)cccc1-c1nc2ccc3[nH]ncc3c2c2c1CCCC2"
Reply: inactive

Query: Outcome? "COc1cccc(CC(C)=C(c2ccc(OCCCN(C)C)cc2)c2ccc(OCCCN(C)C)cc2)c1"
Reply: active

Query: Outcome? CCN(CC)CCCC(C)N/C(c1cccc(OC)c1)=c1\c(=O)[nH]n(-c2c3ccccc3nc3ccccc23)c(=O)\c1=C(/NC(C)CCCN(CC)CC)c1cccc(OC)c1 (stereo not drawn)
Reply: active

Query: Outcome? "CC(C)[C@H](CN)NC[C@H](C)NS(=O)(=O)c1ccc(C(C)(C)C)cc1"
Reply: inactive

Query: Outcome? CC(C)N=C1CCCC1C(=S)SSC(=S)C1CCCC1=NC(C)C (stereo not drawn)
Reply: inactive

Query: Outcome? "O=C(CCc1nc2sc3c(c2c(=O)[nH]1)CCC3)NCc1cn(-c2ccccc2)nc1-c1ccccc1"
Reply: active

###

Test system: PC-3 prostate
PROTOCOL TEXT: NCI-60 one-dose screen, 48 h (100 = growth as untreated, 0 = no growth, -100 = all killed)
CONDITION SET: 10 µM unless noted
About 83,000 compounds went through this panel and 20% of them were active in at least one assay; those are over-represented in the sample as a whole. Active and inactive are the calls of the source. The calls were made as follows: active = growth percent below 10; inactive = the rest.
For each entry below, report its growth value.

Guide cases for growth, answers given:
COMPOUND	growth
COC(=O)c1cc(Cl)cc([N+](=O)[O-])c1O	97.3% (inactive)
COc1ccc(/C=C(/C(=O)N2CCN(c3ccccc3)CC2)c2cc(OC)c(OC)c(OC)c2)cc1O	23.4% (inactive)
O=C(Nc1ccc(Cl)c(C(F)(F)F)c1)c1ccc(Nc2ccc(Cl)nn2)cc1	49.6% (inactive)

Please look at the items below and tell me growth for each one, in order.
1. CC1=NOCC(=O)N1
2. Oc1[nH]c2ccc(Cl)cc2c1/C=c1/ccc2c(c1)N=C(c1ccc(F)cc1)N=2
3. O=C(NCCNC(=O)c1cc(S(=O)(=O)NCCc2ccccc2)c(O)c(O)c1O)c1cc(S(=O)(=O)NCCc2ccccc2)c(O)c(O)c1O
4. Cc1cc(-c2nnc(/C=C/c3ccc4c(c3)OCO4)o2)n[nH]1
5. CN1CCN(Cc2ccc(NC(=O)c3cnc(F)c(C#Cc4cnc(N)c5ncccc45)c3)cc2C(F)(F)F)CC1
6. CCOC(CN1CCN(CC(C)C(=O)c2ccccc2)CC1)c1ccccc1 (stereo unspecified)
7. N#Cc1c(NN)n(C2OC(CO)C(O)C2O)c2ncnc(N)c12 (stereo unspecified)
8. CCCCCCCCCCCCCCC(C(=O)OCC)C(=O)OCC

Reply:
["95.2% (inactive)", "48.5% (inactive)", "40.2% (inactive)", "74.3% (inactive)", "29.9% (inactive)", "93.6% (inactive)", "6.48% (active)", "108% (inactive)"]

###

Test system: A549/ATCC NSCLC
PROTOCOL TEXT: NCI-60 one-dose screen, 48 h (100 = growth as untreated, 0 = no growth, -100 = all killed)
CONDITION SET: 10 µM unless noted
This is part of a sample that, as a whole, favours compounds with a hit. Of some 83,000 tested, about 20% had one in any assay.
MEASURED PROPERTY: growth (%)
One number for each entry, in %.

Guide cases for growth, answers given:
COMPOUND	MEASURED PROPERTY	VALUE MEASURED
O=C(Cc1ccc(Nc2ccnc(C(F)(F)F)c2)cc1)N/N=C/c1ccccc1O	growth	36.2
Oc1c(C(c2ccc(F)cc2)N2CCCCC2)ccc2cncnc12 (stereo not drawn)	growth	5.08

We now examine a further compound.
Query: Please respond with reported growth (system A549/ATCC NSCLC) for "COc1ccc(C(=O)c2c(N)nc3n2CCCC3)cc1OC" .
Reply: 102

###

System: SF-539 CNS
PROTOCOL TEXT: NCI-60 one-dose screen, 48 h
CONDITION SET: 10 µM unless noted
This is part of a sample that, as a whole, favours compounds with a hit. Of some 83,000 tested, about 20% had one in any assay. Calls of active or inactive are those of the source. How the source made its calls: active means growth percent below 10; inactive means the rest.
Allowed answers: true (1) for active, false (0) for inactive

Previously resolved entries follow.
COMPOUND	CLASSIFICATION
COc1ccc(/C=C/C(=O)c2ccc(NC(=O)CSc3nnc(-c4ccc(OC)cc4)n3-c3ccccc3)cc2)cc1	false (0)
COc1ccc2[nH]c(C(=O)OCc3ccc4c(Br)cc(Br)c(O)c4n3)cc2c1	true (1)
Nc1ccc(N(O)/C=C2\C=CC=CC2=O)cc1N	false (0)
CCCCCCCCCCCCCCC(C(=O)OCC)C(=O)OCC	false (0)

Query: Outcome? CCOC(C)(c1ccc(Cl)cc1)C1CCNCC1 (stereo not drawn)
Reply: false (0)

Query: Outcome? "NC(=Nc1ccccc1)SCCCSC(N)=Nc1ccccc1"
Reply: false (0)

Query: Outcome? "O=C(N=Nc1c(Cl)c(O)c2ccccc2c1O)C(=O)Nc1cccc(C(F)(F)F)c1"
Reply: false (0)

Query: Outcome? "Cn1nc(C(F)(F)F)cc1-c1cc(Cl)c(OCc2ccc(Cl)cc2)c(-c2ccc(Cl)c(C(F)(F)F)c2)c1O"
Reply: true (1)

Query: Outcome? "CC(=O)O[C@H]1[C@H](CC#CC#CC[C@@H]2C[C@]3(C)[C@H]4CC=C5[C@H]6[C@@H](C)[C@H](C)CC[C@]6(C(=O)NCCCCCCCCN)CC[C@@]5(C)[C@]4(C)CC[C@H]3C(C)(C)[C@H]2OC(C)=O)C[C@]2(C)[C@H]3CC=C4[C@H]5[C@@H](C)[C@H](C)CC[C@]5(C(=O)NCCCCCCCCN)CC[C@@]4(C)[C@]3(C)CC[C@H]2C1(C)C"
Reply: false (0)

Query: Outcome? "Cc1cc(C#Cc2ccccc2)ccc1-n1c(/C=C/c2ccc(F)cc2)nc2ccccc2c1=O"
Reply: false (0)

Query: Outcome? "Cc1cc(Cl)c2ccc(N(C)C)cc2n1"
Reply: false (0)

Query: Outcome? CCOc1c(C#N)c2c(N)ncnc2n1C1OC(CO)C(O)C1O (stereo not drawn)
Reply: false (0)

Query: Outcome? "COC(=O)CNS(=O)(=O)c1ccc2c(c1)Cc1cc(S(=O)(=O)NCC(=O)OC)ccc1-2"
Reply: false (0)

Query: Outcome? "CCCCc1n(Cc2ccc3ccccc3n2)cc[n+]1Cc1ccc2ccccc2n1"
Reply: false (0)

Query: Outcome? "Cc1ccccc1CNc1ncnc2[nH]ncc12"
Reply: false (0)
